Origin of the recorded values: patent US20250304549A1

- Test system: NCI-H526 cells
- assay.procedure: In vitro cell inhibition assay - NCI-H526 cell proliferation (CellTiter-Glo)
- Type: cell-based
- condition.summary: Homo sapiens, NCI-H526, 120 h, H526 small cell lung cancer cell proliferation, 5 days
Where a name gives a salt, the structure may show the parent alone.
experimental.readout: pIC50
The scale used: pIC50 is minus the common logarithm of the concentration in molar units.

Specify measured pIC50 for N#Cc1ccc(-c2c(-c3ccc(Cl)c(O)c3)cnc(N3CCC(NCc4ccc(/C=C/C(=O)NO)cn4)CC3)c2C#N)cn1 [Example 238] . 7.25

Give reported pIC50 value for N#Cc1ccc(-c2c(-c3ccc4cn[nH]c4c3)cnc(N3CCC(NCc4ccc(/C=C/C(=O)NO)nc4)CC3)c2C#N)cc1F [Example 182, formate] 8.15

Supply measured pIC50 of COc1ccc(-c2cnc(N3CCC(NCc4ccc(/C=C/C(=O)NO)cc4)CC3)c(C#N)c2-c2ccc(C#N)c(F)c2)cc1O [Example 37, hydrochloride] in your reply. 7.99

Tell me pIC50 reported for COc1ccc(-c2c(C)nc(N3CCC(NCc4ccc(/C=C/C(=O)NO)cc4)CC3)c(C#N)c2-c2ccc(C#N)c(F)c2)cc1O [Example 50, formate] 6.67

Consider the compound Cc1noc2cc(-c3cnc(N4CCC(NCc5ccc(/C=C/C(=O)NO)cc5)CC4)c(C#N)c3-c3ccc(C#N)c(F)c3)c(F)cc12 [Example 110] . State its measured pIC50. 6.90

Give reported pIC50 value for N#Cc1ccc(-c2cc(OCCCCCCC(=O)NO)cc(N3CCC(N)CC3)n2)cc1F [Example 31, hydrochloride] 7.43

// fetch pIC50 given entry COc1ccc(-c2cnc(N3CCC(C)(NCc4ccc(/C=C/C(=O)NO)cc4)CC3)c(C#N)c2-c2ccc(C#N)c(F)c2)cc1O [Example 44, formate] 6.86

// Input: COc1ccc(-c2cnc(N3CCC(N(C)Cc4ccc(/C=C/C(=O)NO)cc4)CC3)c(C#N)c2-c2ccc(C#N)c(F)c2)cc1O [Example 42, formate] . Output its pIC50 only. 7.64

Consider the compound COc1ccc(-c2cnc(N3CCC(NCc4ccc(/C=C/C(=O)NO)cc4)CC3)c(C#N)c2-c2cnc(C#N)c(F)c2)cc1O [Example 249, formate] and give its recorded pIC50. 7.93

Give the measured pIC50 for COc1ccc(-c2cnc(N3CCC(NCc4ccc(OCC(=O)NO)cc4)CC3)c(C#N)c2-c2ccc(C#N)c(F)c2)cc1O [Example 181] 7.55

Return pIC50 for the following compound: COc1ccc(-c2cnc(N3CCC(NCc4ccc(/C=C/C(=O)NO)cc4)CC3)c(C#N)c2-c2ccc(C#N)cc2F)cc1O [Example 134, formate] 7.86

Specify pIC50 for N#Cc1ccc(-c2c(-c3ccc(Cl)c(O)c3)cnc(N3CCC(NCc4cnc(/C=C/C(=O)NO)nc4)CC3)c2C#N)cc1F [Example 159, hydrochloride] and stop. 7.79
